system: SK-MEL-2 melanoma; test: NCI tumour cell line growth inhibition, 48 h
readout: TGI

# compound, TGI
rows = [
    ("Cc1cccc(C(C)C)c1NC(=O)CCl", "> 100 µM"),
    ("CCOC(OCC)C(CC)[Se]c1ccccc1 (stereo unspecified)", "> 100 µM"),
]

So for `O=c1[nH]c(=O)n(COCc2ccccc2)c2ccccc12` , the logged TGI turned out to be > 100 µM

Lab note: `CC(=O)Nc1ccc(-c2csc(Nc3cccc(-c4csc(-c5ccccc5)n4)c3)n2)cc1` gave TGI of > 50 µM

So for `CCOC(=O)C(=O)Nc1ccccc1OCC` , the logged TGI turned out to be > 100 µM

Quick note, TGI for COc1cc(C2c3cc(OC)c(OC)c(O)c3C(=O)C3CCC(=O)N32)cc(OC)c1OC (stereo unspecified) landed at > 100 µM

###

system: SW-620 colon; assay: NCI tumour cell line growth inhibition, 48 h
Parameter GI50: see the listing below.

Known GI50 results, listed for orientation:
# sample-smiles, measurement
data = [
    ("O=C(O)c1cn(C2CC2)c2cc(N3CCNCC3)c(F)cc2c1=O", "> 100 µM"),
    ("CC(C)C[CH2][Ge]([CH2]CC(C)C)([CH2]CC(C)C)[CH2]CC(C)C", "> 100 µM"),
    ("CC(=O)Nc1ccc(-c2csc(Nc3cccc(-c4csc(-c5ccccc5)n4)c3)n2)cc1", "> 50 µM"),
    ("COc1cc(/C(=C2/O[C@@H]([C@H]3COC(C)(C)O3)[C@H]3OC(C)(C)O[C@@H]23)c2ccc3c(c2)OCO3)cc(OC)c1OC", "> 25 µM"),
    ("O=C(c1nn(-c2ccc(Cl)cc2)cc1O)n1nc(C(F)(F)F)cc1-c1ccccc1", "4.51 µM"),
]

compound `O=C(c1ccco1)c1nc2cc(C(F)(F)F)ccc2[n+]([O-])c1C(F)(F)F` , GI50 observed: 37.5 µM

Looking up `O=C(Cc1csc2nc(-c3ccc(Br)cc3)cn12)N/N=C/c1ccc(Cl)cc1Cl` , I see its GI50 listed as 23 µM

###

Catalogue of GI50 values
tested on: UO-31 renal; assay: NCI tumour cell line growth inhibition, 48 h

// solved cases for GI50 follow
# molecule, readout, measurement
records = [
    ("CC(C)C[CH2][Ge]([CH2]CC(C)C)([CH2]CC(C)C)[CH2]CC(C)C", "GI50", "> 100 µM"),
    ("COc1cc(-c2nc3cc(Cl)c(Cl)cc3[nH]2)ccc1OCC(=O)N=Nc1c(O)[nH]c2ccc(Cl)cc12", "GI50", "> 100 µM"),
    ("COc1ccc(-c2nnc(SCC(=O)Nc3ccc(C(=O)/C=C/c4cc(OC)c(OC)c(OC)c4)cc3)n2-c2ccccc2)cc1OC", "GI50", "> 10 µM"),
    ("Cc1ccc(-c2cc(-c3ccc(C)cc3)nc(N3CCN(CCNc4ccnc5cc(Cl)ccc45)CC3)n2)cc1", "GI50", "1.16 µM"),
    ("CCCCCCCCCCC[C@@H](C[C@H]1OC(=O)[C@H]1CCCCCC)OC(=O)[C@@H](CC(C)C)NC=O", "GI50", "2.52 µM"),
]

The reported UO-31 renal GI50 of `Fc1ccc([C@@H]2CCNC[C@H]2COc2ccc3c(c2)OCO3)cc1` is 5.76 µM

The value of GI50 recorded for CCOC(=O)c1ccccc1SC(C[N+](=O)[O-])c1ccccc1 (centres undefined) when tested on UO-31 renal reads 2.43 µM

Form: item `CNC(=O)c1cc(Oc2ccc3nc(N[C@@H]4CCCC[C@H]4O)sc3c2)ccn1` ; test system UO-31 renal; GI50: 33.5 µM

Readout GI50 for `COc1cc(C(=O)O/N=C(\N)Cc2cccc3ccccc23)cc(OC)c1OC` , test system UO-31 renal, was 5.26 µM
